- MEASUREMENT NOTES: Biodistribution after day 3 in mouse lung
- Assay type: ADME, organism-based
MEASURED METRIC: log10 concentration at 3 day (log10 of the value in ng/g)

>>> recorded_measurement("CCc1c(CC)c2cc3nc(cc4[nH]c(c(C)c4CC)c4[nH]c(cc5nc(cc1[nH]2)C(CCC(=O)NCCOCCOCCO)=C5C)c(CC)c4C)C(C)=C3CCC(=O)NCCOCCOCCO")
4.04
>>> recorded_measurement("CCc1c(CC)c2cc3nc(cc4[nH]c(c(C)c4CC)c4[nH]c(cc5nc(cc1[nH]2)C(CCC(=O)N(CCO)CCO)=C5C)c(CC)c4C)C(C)=C3CCC(=O)N(CCO)CCO")
2.85
>>> recorded_measurement("CCc1c(CC)c2cc3nc(cc4[nH]c(c(C)c4CC)c4[nH]c(cc5nc(cc1[nH]2)C(CCC(=O)NCCN(CCN)CCN)=C5C)c(CC)c4C)C(C)=C3CCC(=O)NCCN(CCN)CCN")
4.11
>>> recorded_measurement("C=CC1=C(C)c2cc3nc(cc4[nH]c(cc5[nH]c(cc1n2)c(C)c5CCC(=O)NC1C(O)OC(CO)C(O)C1O)c(CCC(=O)NC1C(O)OC(CO)C(O)C1O)c4C)C(C=C)=C3C (stereo unspecified)")
3.23
>>> recorded_measurement("CCC1=C(CC)c2cc3[nH]c(cc4[nH]c(c(C)c4CC)c4[nH]c(cc5nc(cc1n2)C(CCC(=O)NCCOCCOCCN)=C5C)c(CC)c4C)c(C)c3CCC(=O)NCCOCCOCCN")
4.28
>>> recorded_measurement("CCc1c(CC)c2cc3nc(cc4[nH]c(c(C)c4CC)c4[nH]c(cc5nc(cc1[nH]2)C(CCC(=O)NC1C(O)OC(CO)C(O)C1O)=C5C)c(CC)c4C)C(C)=C3CCC(=O)NC1C(O)OC(CO)C(O)C1O (stereo unspecified)")
3.90

###

- MEASUREMENT NOTES: Biodistribution after day 6 in mouse spleen
- Assay type: ADME, organism-based
Quick reference: log10 concentration at 6 day of the listed items.
MEASURED METRIC: log10 concentration at 6 day (log10 of the value in ng/g)

>>> recorded_measurement("CCc1c(CC)c2cc3nc(cc4[nH]c(c(C)c4CC)c4[nH]c(cc5nc(cc1[nH]2)C(CCC(=O)N(CCO)CCO)=C5C)c(CC)c4C)C(C)=C3CCC(=O)N(CCO)CCO")
2.98
>>> recorded_measurement("CCc1c(CC)c2cc3nc(cc4[nH]c(c(C)c4CC)c4[nH]c(cc5nc(cc1[nH]2)C(CCC(=O)NCCOCCOCCO)=C5C)c(CC)c4C)C(C)=C3CCC(=O)NCCOCCOCCO")
4.15
>>> recorded_measurement("CCc1c(CC)c2cc3nc(cc4[nH]c(c(C)c4CC)c4[nH]c(cc5nc(cc1[nH]2)C(CCC(=O)NC1C(O)OC(CO)C(O)C1O)=C5C)c(CC)c4C)C(C)=C3CCC(=O)NC1C(O)OC(CO)C(O)C1O (stereo unspecified)")
3.90
>>> recorded_measurement("C=CC1=C(C)c2cc3nc(cc4[nH]c(cc5[nH]c(cc1n2)c(C)c5CCC(=O)NC1C(O)OC(CO)C(O)C1O)c(CCC(=O)NC1C(O)OC(CO)C(O)C1O)c4C)C(C=C)=C3C (stereo unspecified)")
4.08
>>> recorded_measurement("CCc1c(CC)c2cc3nc(cc4[nH]c(c(C)c4CC)c4[nH]c(cc5nc(cc1[nH]2)C(CCC(=O)NCCN(CCN)CCN)=C5C)c(CC)c4C)C(C)=C3CCC(=O)NCCN(CCN)CCN")
3.59
>>> recorded_measurement("CCC1=C(CC)c2cc3[nH]c(cc4[nH]c(c(C)c4CC)c4[nH]c(cc5nc(cc1n2)C(CCC(=O)NCCOCCOCCN)=C5C)c(CC)c4C)c(C)c3CCC(=O)NCCOCCOCCN")
3.52

###

- MEASUREMENT NOTES: Biodistribution after day 3 in mouse liver
- Assay type: ADME, organism-based
Param label: returns Fulfilled when concentration at 3 day < 10000 ng/g, returns Not fulfilled otherwise, including exact equality.

>>> label_value("CCc1c(CC)c2cc3nc(cc4[nH]c(c(C)c4CC)c4[nH]c(cc5nc(cc1[nH]2)C(CCC(=O)NC1C(O)OC(CO)C(O)C1O)=C5C)c(CC)c4C)C(C)=C3CCC(=O)NC1C(O)OC(CO)C(O)C1O (stereo unspecified)")
"Fulfilled"
>>> label_value("CCc1c(CC)c2cc3nc(cc4[nH]c(c(C)c4CC)c4[nH]c(cc5nc(cc1[nH]2)C(CCC(=O)N(CCO)CCO)=C5C)c(CC)c4C)C(C)=C3CCC(=O)N(CCO)CCO [SAPPHYRIN]")
"Fulfilled"
>>> label_value("CCC1=C(CC)c2cc3[nH]c(cc4[nH]c(c(C)c4CC)c4[nH]c(cc5nc(cc1n2)C(CCC(=O)NCCOCCOCCN)=C5C)c(CC)c4C)c(C)c3CCC(=O)NCCOCCOCCN")
"Not fulfilled"
>>> label_value("CCc1c(CC)c2cc3nc(cc4[nH]c(c(C)c4CC)c4[nH]c(cc5nc(cc1[nH]2)C(CCC(=O)NCCN(CCN)CCN)=C5C)c(CC)c4C)C(C)=C3CCC(=O)NCCN(CCN)CCN")
"Not fulfilled"
>>> label_value("C=CC1=C(C)c2cc3nc(cc4[nH]c(cc5[nH]c(cc1n2)c(C)c5CCC(=O)NC1C(O)OC(CO)C(O)C1O)c(CCC(=O)NC1C(O)OC(CO)C(O)C1O)c4C)C(C=C)=C3C (stereo unspecified) [PORPHYRIN]")
"Fulfilled"
>>> label_value("CCc1c(CC)c2cc3nc(cc4[nH]c(c(C)c4CC)c4[nH]c(cc5nc(cc1[nH]2)C(CCC(=O)NCCOCCOCCO)=C5C)c(CC)c4C)C(C)=C3CCC(=O)NCCOCCOCCO")
"Not fulfilled"

###

Quick reference: concentration at 1 day of the listed items.
- MEASUREMENT NOTES: Biodistribution after day 1 in mouse muscle
- Assay type: ADME, organism-based, Muscle tissue
MEASURED METRIC: concentration at 1 day (ng/g)

>>> recorded_measurement("CCc1c(CC)c2cc3nc(cc4[nH]c(c(C)c4CC)c4[nH]c(cc5nc(cc1[nH]2)C(CCC(=O)N(CCO)CCO)=C5C)c(CC)c4C)C(C)=C3CCC(=O)N(CCO)CCO [SAPPHYRIN]")
1020
>>> recorded_measurement("C=CC1=C(C)c2cc3nc(cc4[nH]c(cc5[nH]c(cc1n2)c(C)c5CCC(=O)NC1C(O)OC(CO)C(O)C1O)c(CCC(=O)NC1C(O)OC(CO)C(O)C1O)c4C)C(C=C)=C3C (stereo unspecified) [PORPHYRIN]")
3500
>>> recorded_measurement("CCc1c(CC)c2cc3nc(cc4[nH]c(c(C)c4CC)c4[nH]c(cc5nc(cc1[nH]2)C(CCC(=O)NCCN(CCN)CCN)=C5C)c(CC)c4C)C(C)=C3CCC(=O)NCCN(CCN)CCN")
3600
>>> recorded_measurement("CCc1c(CC)c2cc3nc(cc4[nH]c(c(C)c4CC)c4[nH]c(cc5nc(cc1[nH]2)C(CCC(=O)NCCOCCOCCO)=C5C)c(CC)c4C)C(C)=C3CCC(=O)NCCOCCOCCO")
10000
>>> recorded_measurement("CCc1c(CC)c2cc3nc(cc4[nH]c(c(C)c4CC)c4[nH]c(cc5nc(cc1[nH]2)C(CCC(=O)NC1C(O)OC(CO)C(O)C1O)=C5C)c(CC)c4C)C(C)=C3CCC(=O)NC1C(O)OC(CO)C(O)C1O (stereo unspecified)")
8000
>>> recorded_measurement("CCC1=C(CC)c2cc3[nH]c(cc4[nH]c(c(C)c4CC)c4[nH]c(cc5nc(cc1n2)C(CCC(=O)NCCOCCOCCN)=C5C)c(CC)c4C)c(C)c3CCC(=O)NCCOCCOCCN")
1900

###

- MEASUREMENT NOTES: Biodistribution after day 6 in mouse blood
- Type: ADME, organism-based
MEASURED METRIC: concentration at 6 day (ng/g)

>>> recorded_measurement("CCc1c(CC)c2cc3nc(cc4[nH]c(c(C)c4CC)c4[nH]c(cc5nc(cc1[nH]2)C(CCC(=O)NCCN(CCN)CCN)=C5C)c(CC)c4C)C(C)=C3CCC(=O)NCCN(CCN)CCN")
1170
>>> recorded_measurement("CCC1=C(CC)c2cc3[nH]c(cc4[nH]c(c(C)c4CC)c4[nH]c(cc5nc(cc1n2)C(CCC(=O)NCCOCCOCCN)=C5C)c(CC)c4C)c(C)c3CCC(=O)NCCOCCOCCN")
2450
>>> recorded_measurement("CCc1c(CC)c2cc3nc(cc4[nH]c(c(C)c4CC)c4[nH]c(cc5nc(cc1[nH]2)C(CCC(=O)N(CCO)CCO)=C5C)c(CC)c4C)C(C)=C3CCC(=O)N(CCO)CCO")
500
>>> recorded_measurement("CCc1c(CC)c2cc3nc(cc4[nH]c(c(C)c4CC)c4[nH]c(cc5nc(cc1[nH]2)C(CCC(=O)NC1C(O)OC(CO)C(O)C1O)=C5C)c(CC)c4C)C(C)=C3CCC(=O)NC1C(O)OC(CO)C(O)C1O (stereo unspecified)")
2200
>>> recorded_measurement("CCc1c(CC)c2cc3nc(cc4[nH]c(c(C)c4CC)c4[nH]c(cc5nc(cc1[nH]2)C(CCC(=O)NCCOCCOCCO)=C5C)c(CC)c4C)C(C)=C3CCC(=O)NCCOCCOCCO")
3400
>>> recorded_measurement("C=CC1=C(C)c2cc3nc(cc4[nH]c(cc5[nH]c(cc1n2)c(C)c5CCC(=O)NC1C(O)OC(CO)C(O)C1O)c(CCC(=O)NC1C(O)OC(CO)C(O)C1O)c4C)C(C=C)=C3C (stereo unspecified)")
980

The reported measurements were obtained from ChEMBL document CHEMBL1135601.
